FYI, the data here is from patent US20230144436A1.

Could you please report measured Normalized DMPK Remaining for the items listed next?
# Test system: DMPK
# Assay protocol: DMPK knockdown by transfected antisense oligonucleotides in DM1 C15 myotubes at 0.5 nM and 50 nM
# Type: cell-based
# Measurement context: 0.5 nM oligonucleotide, 72 hours, relative to vehicle control = 1.00
# Protocol: Two hundred and thirty-six oligonucleotides for targeting DMPK were generated using in silico analysis. Each individual oligonucleotide was evaluated for their ability to target DMPK in cellulo at two doses—0.5 nM (low dose) and 50 nM (high dose). Briefly, DM1 C15 immortalized myoblasts were cultured in T-75 flasks until near confluency (˜80% confluent). Myoblasts were then disrupted with trypsin and seeded into 96-well microplates at a density of 50,000 cells/well. […]
Numbers only.

Look over these answered cases.
Substance: 377 (UUUCCCGAGUAAGCAGGCAG; chemistry not given here) [compound 377]
Target of assay: DMPK
Normalized DMPK Remaining: 0.79
--
Substance: 410 (UACAGGUAGUUCUCAUCCUG; chemistry not given here) [compound 410]
Target of assay: DMPK
Normalized DMPK Remaining: 0.80
--
Substance: 452 (CGGCCUCAGCCUCUGCCGCA; chemistry not given here) [compound 452]
Target of assay: DMPK
Normalized DMPK Remaining: 0.93

Now look at this entry.
Reading of Normalized DMPK Remaining for 450 (ACAGAACAACGGCGAACAGG; chemistry not given here) [compound 450] with DMPK: 0.98
